Cited source for all entries: ChEMBL document CHEMBL1124700

biological target: Polyunsaturated fatty acid 5-lipoxygenase (Rattus norvegicus) (UniProt P12527); assay: Ex vivo inhibition of LTB4 production in rat blood following 50 mg/kg p.o.; format: functional, organism-based; set-up: dose 50 mg/kg; conditions: at 50 mg/kg
Sequence (P12527 whole entry): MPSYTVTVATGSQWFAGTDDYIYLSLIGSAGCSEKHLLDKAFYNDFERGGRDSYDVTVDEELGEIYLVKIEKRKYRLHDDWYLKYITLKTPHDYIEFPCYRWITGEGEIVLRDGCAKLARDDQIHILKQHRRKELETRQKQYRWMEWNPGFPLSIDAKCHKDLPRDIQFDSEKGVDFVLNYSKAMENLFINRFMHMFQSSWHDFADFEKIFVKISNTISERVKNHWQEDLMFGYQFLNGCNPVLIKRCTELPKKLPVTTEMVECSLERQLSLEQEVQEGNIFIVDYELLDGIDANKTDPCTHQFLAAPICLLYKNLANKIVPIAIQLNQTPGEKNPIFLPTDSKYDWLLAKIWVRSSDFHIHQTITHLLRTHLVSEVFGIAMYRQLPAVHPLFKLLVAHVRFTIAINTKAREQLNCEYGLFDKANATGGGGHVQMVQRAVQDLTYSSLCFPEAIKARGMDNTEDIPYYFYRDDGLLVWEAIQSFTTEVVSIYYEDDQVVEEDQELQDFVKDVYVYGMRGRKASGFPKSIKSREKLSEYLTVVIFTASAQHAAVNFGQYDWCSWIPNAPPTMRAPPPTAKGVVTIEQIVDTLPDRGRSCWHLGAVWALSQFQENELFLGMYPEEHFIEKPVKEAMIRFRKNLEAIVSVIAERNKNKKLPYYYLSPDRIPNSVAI
QUANTITY: inhibition (%)

CCCCc1cc(OC)c2c(C)c(C)c(C)c(C)c2c1OC(C)=O | 41.2
CCCCc1cc(OC)c2c(C)cccc2c1OC(C)=O | 31.8
CCc1c(CC)c(OC)c2c(C)cccc2c1OC(C)=O | 40.6

* * *

biological target: Polyunsaturated fatty acid 5-lipoxygenase (Rattus norvegicus) (UniProt P12527); test: Ex vivo inhibition of LTB4 production in rat blood following 50 mg/kg p.o.; type: functional, organism-based; set-up: dose 50 mg/kg; details: at 50 mg/kg
QUANTITY: inhibition (%)

CCc1c(CC)c(OC(C)=O)c2c(C)c(C)c(C)c(C)c2c1OC | -4.9
CCCCc1cc(OC)c2c(C)ccc(C)c2c1OC(C)=O | 19.1
CCCCc1cc(OC)c2ccccc2c1OC(C)=O | 61.1
CCc1c(CC)c(OC(C)=O)c2ccccc2c1OC | 74.8

(I) CCCCc1cccc2c(OC)c(CC)c(CC)c(OC(C)=O)c12
(II) CCCCc1ccc2c(OC(C)=O)c(CCCC)cc(OC)c2c1
Query string: Between I and II , which one shows the larger inhibition value? Output the label that corresponds to your choice.
Result string: I
(I: 30.5%, II: 19.2%)

(a) CCCCc1cc(OC)c2c(OC)cccc2c1OC(C)=O
(b) CCc1c(CC)c(OC(C)=O)c2c(C)ccc(C)c2c1OC
Query string: Between a and b , which one shows the larger inhibition value? Output the label that corresponds to your choice.
Result string: b

(a) CCCCc1cc(OC)c2c(C)cc(C)c(C)c2c1OC(C)=O
(b) CCc1c(CC)c(OC(C)=O)c2c(C)c(C)cc(C)c2c1OC
Query string: Between a and b , which one shows the larger inhibition value? Output the label that corresponds to your choice.
Result string: a
(a: 35.4%, b: 14.7%)

(I) CCCCc1c(CCCC)c(OC(C)=O)c2ccccc2c1OC
(II) CCCCc1ccc2c(OC(C)=O)c(CC)c(CC)c(OC)c2c1
Query string: Of the pair I and II , name the member with the lesser recorded inhibition. Output the label that corresponds to your choice.
Result string: II
(II: 17%, I: 29.2%)
